- Tested on: NCI-H23 lung
- assay-comment: NCI tumour cell line growth inhibition, 48 h
Overview of recorded TGI for various molecules
test-readout: TGI

[[record]]
molecule = "O=C(N=Nc1c(O)[nH]c2c(Cl)cc(Cl)cc12)C(=O)Nc1cccc(C(F)(F)F)c1"
measured_result = "> 100 µM"

[[record]]
molecule = "CCOC(=O)c1c2ccccc2n2c(=O)n(-c3ccccc3)nnc12"
measured_result = "> 100 µM"

[[record]]
molecule = "COc1ncc(-c2ccc3nc(N)n(-c4ccccc4C(F)(F)F)c(=O)c3c2)cc1S(=O)(=O)Nc1ccc(F)cc1F"
measured_result = "38.1 µM"

[[record]]
molecule = "c1c[nH]c(CN2CCN(Cc3ncc[nH]3)CC2)n1"
measured_result = "> 100 µM"

[[record]]
molecule = "CN(C)CCCn1c2c(c3ccc(N4CCNCC4)cc3c1=O)C(=O)c1ccccc1-2"
measured_result = "2.64 µM"

[[record]]
molecule = "COC(=O)c1nc2n(n1)-c1ccccc1C(=O)N(Cc1ccccc1)C2"
measured_result = "> 100 µM"

[[record]]
molecule = "CCOP(=O)(OCC)/C(F)=C/c1ccc(F)cc1"
measured_result = "> 100 µM"

[[record]]
molecule = "Nc1ncnc2c1ncn2C1SC(CO)C(O)C1O (stereo not given)"
measured_result = "> 100 µM"

[[record]]
molecule = "Cc1[nH]n(C(=O)Cc2ccccc2)c(=O)c1/C=C1\\C(=O)C=Cc2ccccc21"
measured_result = "> 100 µM"

[[record]]
molecule = "COc1ccc(Cc2c3cc(OC)c(OC)cc3cc[n+]2C)cc1"
measured_result = "> 40.2 µM"

